The origin of these recorded values is patent US9034855B2.

- target_entity: human V2 receptor (Homo sapiens, UniProt P30518)
- Sequence (P30518 whole entry): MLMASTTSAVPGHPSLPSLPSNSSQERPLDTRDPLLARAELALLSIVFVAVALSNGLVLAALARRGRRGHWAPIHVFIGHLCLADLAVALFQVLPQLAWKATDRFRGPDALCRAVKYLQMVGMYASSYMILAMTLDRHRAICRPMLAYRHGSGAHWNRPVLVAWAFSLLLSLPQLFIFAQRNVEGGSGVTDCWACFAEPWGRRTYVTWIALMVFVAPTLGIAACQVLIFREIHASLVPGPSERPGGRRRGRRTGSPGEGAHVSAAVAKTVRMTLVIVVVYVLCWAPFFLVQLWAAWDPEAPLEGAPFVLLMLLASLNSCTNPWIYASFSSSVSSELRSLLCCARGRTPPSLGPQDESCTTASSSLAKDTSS
- run_description: Cellular in vitro assay for determining the vasopressin receptor activity (aequorin luminescence, recombinant CHO cells), human V2
- condition_summary: CHO cells expressing aequorin and Gα16, transfected with human V2 receptor; agonist [Arg8]-vasopressin; read-out: IC50 hV2
assay_metric: IC50 (nM)

COC(=O)C(C)(C)NC(=O)[C@](C)(NC(=O)Cn1nc(-c2ccc(Cl)cc2)n(C[C@H](O)C(F)(F)F)c1=O)c1cccc(C(F)(F)F)c1 :: 4.5

a: COCCNC(=O)C[C@H](NC(=O)Cn1nc(-c2ccc(Cl)cc2)n(C[C@H](O)C(F)(F)F)c1=O)c1cccc(C(F)(F)F)c1
b: CC(C)(NC(=O)C(NC(=O)Cn1nc(-c2ccc(Cl)cc2)n(CCC(F)(F)F)c1=O)c1ccccc1Cl)C(N)=O (racemic)
c: COCCNC(=O)C[C@H](NC(=O)Cn1nc(-c2ccc(Cl)cc2)n(C[C@H](O)C(F)(F)F)c1=O)c1ccccc1C(F)(F)F
d: CC(C)(CO)NC(=O)C(NC(=O)Cn1nc(-c2ccc(Cl)cc2)n(C[C@H](O)C(F)(F)F)c1=O)c1cccc(C(F)(F)F)c1 (single isomer, unassigned) [Example 41]
e: NC(=O)CCNC(=O)C(NC(=O)Cn1nc(-c2ccc(Cl)cc2)n(C[C@H](O)C(F)(F)F)c1=O)c1cccc(C(F)(F)F)c1 (single isomer, unassigned) [Example 17]
Task: Please give the order of these compounds when sorted by IC50, largest value leading. Put the labels in the order asked and list them.
Result: b, c, e, a, d

P: O=C(C[C@H](NC(=O)Cn1nc(-c2ccc(Cl)cc2)n(C2CC2)c1=O)c1ccccc1C(F)(F)F)NCCO
Q: O=C(O)CCNC(=O)C(NC(=O)Cn1nc(-c2ccc(Cl)cc2)n(C[C@H](O)C(F)(F)F)c1=O)c1cccc(C(F)(F)F)c1 (stereo partly drawn)
R: O=C(Cn1nc(-c2ccc(Cl)cc2)n(C2CC2)c1=O)NC(C(=O)NC1(C(=O)O)CC1)c1cccc(C(F)(F)F)c1 (racemic)
S: CCOC(=O)C1(NC(=O)C(NC(=O)Cn2nc(-c3ccc(Cl)cc3)n(C[C@H](O)C(F)(F)F)c2=O)c2cccc(C(F)(F)F)c2)CC1 (stereo partly drawn)
Task: Put the compounds in ascending order of IC50. To answer, arrange all of the labels according to the requested order.
Result: Q, S, R, P

###

- target_entity: human V2 receptor (Homo sapiens)
- Construct: expressed in transfected cells; host or cells: CHO K1 (ATCC), constitutively expressing modified aequorin, co-transfected with promiscuous G-alpha-16
- run_description: Cellular in vitro assay for determining the vasopressin receptor activity (aequorin luminescence, recombinant CHO cells), human V2
- Type: cell-based
- condition_summary: CHO cells expressing aequorin and Gα16, transfected with human V2 receptor; agonist [Arg8]-vasopressin; read-out: IC50 hV2
assay_metric: IC50 (nM)

COC(=O)C(C)(C)NC(=O)C(NC(=O)Cn1nc(-c2ccc(Cl)cc2)n(C2CC2)c1=O)c1cccc(C(F)(F)F)c1 (racemic) :: 497

I: O=C(Cn1nc(-c2ccc(Cl)cc2)n(C[C@H](O)C(F)(F)F)c1=O)NC(C(=O)NCCO)c1cccc(OC(F)(F)F)c1 (stereo partly drawn)
II: O=C(C[C@H](NC(=O)Cn1nc(-c2ccc(Cl)cc2)n(C[C@H](O)C(F)(F)F)c1=O)c1ccccc1C(F)(F)F)NCCO
Task: Quick check, higher IC50 between I and II ? Reply with the label of the item you choose.
Result: I

###

- target_entity: human V2 receptor (Homo sapiens)
- run_description: Cellular in vitro assay for determining the vasopressin receptor activity (aequorin luminescence, recombinant CHO cells), human V2
- condition_summary: CHO cells expressing aequorin and Gα16, transfected with human V2 receptor; agonist [Arg8]-vasopressin; read-out: IC50 hV2
- Description: B-1. Cellular In Vitro Assay for Determining the Vasopressin Receptor Activity The identification of agonists and antagonists of the V1a and V2 vasopressin receptors from humans and rats and also the quantification of the activity of the substances described here takes place using recombinant cell lines. These cells derive originally from a hamster's ovary epithelial cell (Chinese Hamster Ovary, CHO K1, ATCC: American Type Culture Collection, Manassas, Va. 20108, USA). […]
assay_metric: IC50 (nM)

Previously resolved entries follow.
O=C(Cn1nc(-c2ccc(Cl)cc2)n(C[C@H](O)C(F)(F)F)c1=O)NC(C(=O)NCCOC(F)(F)F)c1cccc(C(F)(F)F)c1 (single isomer, unassigned) [Example 60] :: 19.7
O=C(O)CCNC(=O)C(NC(=O)Cn1nc(-c2ccc(Cl)cc2)n(C2CC2)c1=O)c1cccc(C(F)(F)F)c1 (racemic) :: 262
CC(C)(NC(=O)C(NC(=O)Cn1nc(-c2ccc(Cl)cc2)n(/C=C/C(F)(F)F)c1=O)c1ccccc1C(F)(F)F)C(N)=O (racemic) :: 1180

a: NC(=O)CCNC(=O)C(NC(=O)Cn1nc(-c2ccc(Cl)cc2)n(C[C@H](O)C(F)(F)F)c1=O)c1cccc(C(F)(F)F)c1 (single isomer, unassigned) [Example 18]
b: O=C(Cn1nc(-c2ccc(Cl)cc2)n(C[C@H](O)C(F)(F)F)c1=O)NC(C(=O)NC1(C(=O)O)CC1)c1cccc(C(F)(F)F)c1 (single isomer, unassigned) [Example 4]
Task: Just curious, which one has the larger IC50 reading, a or b ? Write down the label of the entry you select.
Result: b

###

- target_entity: human V2 receptor (Homo sapiens, UniProt P30518)
- run_description: Cellular in vitro assay for determining the vasopressin receptor activity (aequorin luminescence, recombinant CHO cells), human V2
- condition_summary: CHO cells expressing aequorin and Gα16, transfected with human V2 receptor; agonist [Arg8]-vasopressin; read-out: IC50 hV2
assay_metric: IC50 (nM)

CC(C)(NC(=O)[C@](C)(NC(=O)Cn1nc(-c2ccc(Cl)cc2)n(C[C@H](O)C(F)(F)F)c1=O)c1cccc(C(F)(F)F)c1)C(N)=O :: 2.7

P: O=C(Cn1nc(-c2ccc(Cl)cc2)n(C[C@H](O)C(F)(F)F)c1=O)NC(C(=O)NC1(C(=O)O)CC1)c1cccc(C(F)(F)F)c1 (single isomer, unassigned) [Example 3]
Q: COC(=O)CCNC(=O)C(NC(=O)Cn1nc(-c2ccc(Cl)cc2)n(C2CC2)c1=O)c1cccc(C(F)(F)F)c1 (racemic)
Task: Returns: the argument ( P or Q ) having the larger IC50. // respond with label for picked entry
Result: P

###

- target_entity: human V1a receptor (Homo sapiens, UniProt P37288)
- Sequence (P37288 whole entry): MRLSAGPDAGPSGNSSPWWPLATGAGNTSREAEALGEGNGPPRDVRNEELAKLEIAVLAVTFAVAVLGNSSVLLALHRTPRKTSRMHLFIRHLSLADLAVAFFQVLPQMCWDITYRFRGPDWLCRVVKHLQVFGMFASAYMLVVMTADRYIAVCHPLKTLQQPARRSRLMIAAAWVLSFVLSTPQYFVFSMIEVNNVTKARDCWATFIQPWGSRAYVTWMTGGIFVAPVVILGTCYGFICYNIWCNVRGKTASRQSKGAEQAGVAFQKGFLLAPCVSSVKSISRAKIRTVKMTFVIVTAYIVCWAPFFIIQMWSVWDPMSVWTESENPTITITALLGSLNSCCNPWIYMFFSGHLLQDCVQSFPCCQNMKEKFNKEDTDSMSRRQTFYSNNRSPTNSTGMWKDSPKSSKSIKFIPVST
- run_description: Cellular in vitro assay for determining the vasopressin receptor activity (aequorin luminescence, recombinant CHO cells), human V1a
- condition_summary: CHO cells expressing aequorin, transfected with human V1a receptor; agonist [Arg8]-vasopressin; read-out: IC50 hV1a
pIC50: −log10 of the molar value.
assay_metric: pIC50

CC(C)(NC(=O)C[C@H](NC(=O)Cn1nc(-c2ccc(Cl)cc2)n(C[C@H](O)C(F)(F)F)c1=O)c1cccc(C(F)(F)F)c1)C(=O)O :: 8.31
O=C(Cn1nc(-c2ccc(Cl)cc2)n(C[C@H](O)C(F)(F)F)c1=O)NC(C(=O)NC1(C(=O)O)CC1)c1cccc(C(F)(F)F)c1 (single isomer, unassigned) [Example 4] :: 8.72

1: COCCNC(=O)C(NC(=O)Cn1nc(-c2ccc(Cl)cc2)n(C[C@H](O)C(F)(F)F)c1=O)c1ccccc1C(F)(F)F (some centres unmarked)
2: CC(C)(NC(=O)C(NC(=O)Cn1nc(-c2ccc(Cl)cc2)n(Cc2ccccc2F)c1=O)c1cccc(Cl)c1Cl)C(N)=O (racemic)
3: CC(C)(NC(=O)[C@](C)(NC(=O)Cn1nc(-c2ccc(Cl)cc2)n(C[C@H](O)C(F)(F)F)c1=O)c1cccc(C(F)(F)F)c1)C(=O)O
4: O=C(O)CCNC(=O)C(NC(=O)Cn1nc(-c2ccc(Cl)cc2)n(C[C@H](O)C(F)(F)F)c1=O)c1cccc(C(F)(F)F)c1 (some centres unmarked)
5: CC(C)(NC(=O)C(NC(=O)Cn1nc(-c2ccc(Cl)cc2)n(C[C@H](O)C(F)(F)F)c1=O)c1cccc(C(F)(F)F)c1)C(N)=O (single isomer, unassigned) [Example 28]
Task: Which order do these items take when sorted by rising pIC50? List them. Response field: labels, in requested order.
Result: 5, 2, 4, 1, 3

###

- target_entity: human V2 receptor (Homo sapiens)
- run_description: Cellular in vitro assay for determining the vasopressin receptor activity (aequorin luminescence, recombinant CHO cells), human V2
- condition_summary: CHO cells expressing aequorin and Gα16, transfected with human V2 receptor; agonist [Arg8]-vasopressin; read-out: IC50 hV2
assay_metric: IC50 (nM)

Worked examples follow.
CC(C)(NC(=O)C(NC(=O)Cn1nc(-c2ccc(Cl)cc2)n(C2CC2)c1=O)c1cccc(C(F)(F)F)c1)C(=O)O (racemic) :: 182
CC(C)(NC(=O)[C@](C)(NC(=O)Cn1nc(-c2ccc(Cl)cc2)n(C[C@H](O)C(F)(F)F)c1=O)c1cccc(C(F)(F)F)c1)C(=O)O :: 0.8
C[C@](NC(=O)Cn1nc(-c2ccc(Cl)cc2)n(C[C@H](O)C(F)(F)F)c1=O)(C(=O)NCCC(N)=O)c1cccc(C(F)(F)F)c1 :: 1.1
CC(C)(NC(=O)C[C@H](NC(=O)Cn1nc(-c2ccc(Cl)cc2)n(C[C@H](O)C(F)(F)F)c1=O)c1cccc(C(F)(F)F)c1)C(N)=O :: 8.1
O=C(C[C@H](NC(=O)Cn1nc(-c2ccc(Cl)cc2)n(C[C@H](O)C(F)(F)F)c1=O)c1cccc(C(F)(F)F)c1)NCCO :: 2.6

a: CC(C)(NC(=O)C[C@H](NC(=O)Cn1nc(-c2ccc(Cl)cc2)n(C[C@H](O)C(F)(F)F)c1=O)c1cccc(C(F)(F)F)c1)C(=O)O
b: COCCn1c(-c2ccc(Cl)s2)nn(CC(=O)NC(C(=O)NC(C)(C)CO)c2cccc(C(F)(F)F)c2)c1=O (single isomer, unassigned)
c: O=C(Cn1nc(-c2ccc(Cl)cc2)n(C[C@H](O)C(F)(F)F)c1=O)NC(C(=O)NCCO)c1cccc(C(F)(F)F)c1 (stereo partly shown)
Task: Hi! Can you put these in order of IC50, lowest number first? Put the labels in the requested order and list them out.
Result: a, c, b
(a: 0.8 nM, c: 7.6 nM, b: 1600 nM)

A: CC(C)(NC(=O)C(NC(=O)Cn1nc(-c2ccc(Cl)cc2)n(C[C@H](O)C(F)(F)F)c1=O)c1cccc(C(F)(F)F)c1)C(=O)O (single isomer, unassigned) [Example 26]
B: COCCn1c(-c2ccc(Cl)s2)nn(CC(=O)NC(C(=O)NC(C)(C)C(=O)O)c2cccc(C(F)(F)F)c2)c1=O (racemic)
Task: Form field 'greater IC50' accepts A or B ; which applies? Indicate which entry you chose by stating its label.
Result: B
(B: 960 nM, A: 2.3 nM)

P: CC(C)(CO)NC(=O)C(NC(=O)Cn1nc(-c2ccc(Cl)cc2)n(C[C@H](O)C(F)(F)F)c1=O)c1cccc(C(F)(F)F)c1 (single isomer, unassigned) [Example 42]
Q: CC(C)(NC(=O)C(NC(=O)Cn1nc(-c2ccc(Cl)cc2)n(CCC(F)(F)F)c1=O)c1ccccc1C(F)(F)F)C(N)=O (racemic)
Task: Between these two entries, P and Q , state which has the higher IC50. Identify your selection by its label.
Result: Q
(Q: 1270 nM, P: 158 nM)

A: COCCNC(=O)C(NC(=O)Cn1nc(-c2ccc(Cl)cc2)n(C[C@H](O)C(F)(F)F)c1=O)c1ccccc1C(F)(F)F (stereo partly shown)
B: CC(C)(NC(=O)C(NC(=O)Cn1nc(-c2ccc(Cl)cc2)n(C[C@H](O)C(F)(F)F)c1=O)c1cccc(C(F)(F)F)c1)C(N)=O (single isomer, unassigned) [Example 29]
Task: # query: argmin of IC50 over A and B Return value: the label identifying the chosen record.
Result: B
(B: 3.3 nM, A: 144 nM)
